tested on: Sam68 (KHDRBS1); test: Sam68 small-molecule binders, primary screen, biochemical, small-molecule microarray, 635 nm fluorescence (AID 1125); conditions: small-molecule microarray binding, higher = more signal;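 further: score merges 667 nm channel intensity with signal to noise over triplicate slides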
MEASURED_PARAMETER: composite z-score

                                    compound  reported_measurement
 0             Cc1ccc(C(C)C)n1C(=O)OC(C)(C)C                 0.456
 1     CN1CCc2nc(-c3ccccc3)c(-c3ccccc3)cc2C1                 -0.23
 2  COc1ccc(OC[C@@H]2CC3[C@@H](c4ccc(Br)cc4)[C@H](C)CC[C@H]3C(=O)O2)cc1 (stereo not given in full)                -0.218
 3  O=C1[C@H]2[C@H]3[C@H](O)[C@H](O)CC(=NOC[C@@H](O)COCc4ccco4)[C@@H]3CC[C@H]2C(=O)N1Cc1ccc2c(c1)OCO2                 0.275
 4  CC(C)CN1CCc2nc(-c3ccccc3)c3c(c2C1)CO[C@@H](C)C3                  1.29
 5  CCc1cc2c(nc1CC)CCN(CCC(C)=NOCC[C@@H]1C=C[C@H](OC(C)=O)[C@@H](COC(C)=O)O1)C2                  1.23
 6  CC1(C)O[C@H]2O[C@H]([C@H](O)CON=C3[C@H]4CCn5c(=O)n(-c6ccccc6)c(=O)n5[C@H]4[C@H](O)[C@@H]4O[C@H]34)[C@H](O)[C@H]2O1                -0.773
 7  CO[C@H]1COC(=O)CCC[C@H](C)[C@H](OC)COC(=O)CC=C[C@@H]1C                -0.219
 8  Cc1cc(C)c(-c2cc([C@H](C)ON=C[C@@H](C)[C@H](OCc3ccccc3)C(C)C)on2)c(C)c1                -0.686
 9  O=C1C2=CC[C@H]3C(=O)N(C[C@@H]4CCCO4)C(=O)[C@H]3[C@H]2[C@H](O)[C@@H]2O[C@H]12                 0.244
10  CCN1C(=O)[C@H]2[C@H]3[C@H](O)[C@H](O)CC(=NO[C@@H](C)c4cc(-c5c(C)cc(C)cc5C)no4)[C@@H]3CC[C@H]2C1=O                   1.3
11  COC(=O)[C@H](C)NC(=O)CCC1CC(OC(=O)NCc2ccc3c(c2)OCO3)CC2(CCCC(COC(=O)NCc3ccccc3)O2)O1 (stereo not given in full)                  1.26
12  CC(C)(C)N1C(=O)[C@H]2[C@@H]3C(=CC[C@H]2C1=O)C(=O)[C@H]1O[C@H]1[C@H]3O                -0.657
13  CC[C@@H](c1ccccc1)n1c(=O)n2n(c1=O)[C@H]1[C@H](O)[C@@H]3O[C@@H]3C(=NOCc3ccccc3)[C@H]1CC2                0.0843
14  COc1ccc(OC[C@H]2CN3[C@@H](CC[C@@H](C)[C@@H]3c3ccc(Br)cc3)C(=O)O2)cc1                 0.592
15  CC(C)[C@H](NC(=O)OC(C)(C)C)[C@@H](O)CC(=O)C(C)(C)C               -0.0938
16  COC(=O)CC=C[C@@H](C)[C@@H](C=NOC[C@@H](O)COCc1ccco1)OC                -0.684
17  CCN1C(=O)[C@H]2[C@H]3[C@H](O)[C@H](O)CC(=NOCC[C@@H]4C=C[C@H](OC(C)=O)[C@@H](COC(C)=O)O4)[C@@H]3CC[C@H]2C1=O                 0.214
18  CC(C)=CCCC(C)=CCON=C1C[C@@H](O)[C@@H](O)[C@@H]2[C@@H]3C(=O)N(c4cccc(Oc5ccccc5)c4)C(=O)[C@@H]3CC[C@H]12                  1.02
19  C[C@@H]1C=CCC(=O)OC[C@H](C)C(=O)N[C@@H](Cc2ccccc2)C(=O)OC1                -0.124
20  CC(C)=NOC[C@@H](O)[C@H]1O[C@@H]2OC(C)(C)O[C@@H]2[C@H]1O                 0.968
21  O=C1[C@H]2[C@H]3[C@H](O)[C@H](O)CC(=NOCc4ccccc4)[C@@H]3CC[C@H]2C(=O)N1c1cccc(Oc2ccccc2)c1                  1.32
22  CCc1cc2c(nc1CC)CCN(CCC(C)=NOC[C@@H](C)[C@H](OCc1ccccc1)C(C)C)C2                 -0.16
23  COc1cccc([C@H]2Oc3ccc(OC)cc3C(=NO[C@@H](C)c3cc(-c4c(C)cc(C)cc4C)no3)[C@@H]2O)c1                -0.156
24  CCN1C(=O)[C@H]2[C@H]3[C@H](O)[C@H](O)CC(=NO[C@H](C)c4cn([C@@H]5COC[C@H]5O)nn4)[C@@H]3CC[C@H]2C1=O                 0.126
25  CCOC(=O)CCN1C(=O)[C@H]2[C@H]3[C@H](O)[C@H](O)CC(=NO[C@@H]4O[C@H](CO)[C@@H](O)[C@H](O)[C@H]4O)[C@H]3CC[C@H]2C1=O                 0.201
26  C#CCCCON=C1C[C@@H](O)[C@@H](O)[C@@H]2[C@@H]3C(=O)N(C[C@@H]4CCCO4)C(=O)[C@@H]3CC[C@@H]12                 0.254
27  O=C1[C@H]2[C@H]3[C@H](O)[C@H](O)CC(=NO[C@@H]4O[C@H](CO)[C@@H](O)[C@H](O)[C@H]4O)[C@H]3CC[C@H]2C(=O)N1c1ccc(F)cc1F                  1.07
28           CON=C(C)CCN1CCCCc2nc(C)c(C)cc21                 0.119
29  O=C(NN=C1C[C@@H](O)[C@@H](O)[C@@H]2[C@@H]3C(=O)N(Cc4ccc5c(c4)OCO5)C(=O)[C@@H]3CC[C@@H]12)OCc1ccccc1                -0.449

###

Below, each entry is listed alongside its reported composite z-score.
tested on: Fibrinogen (Alexa647-labelled); assay: fibrinogen binders on compound microarrays, profiling panel, artefact control for SMM control-protein annotation, biochemical, small-molecule microarray, 635/667 nm fluorescence (AID 1131); details: fibrinogen-A647 binding fluorescence, higher = more signal;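 further: z-score merges 667 nm fluorescence with per-spot signal-to-noise over triplicate slides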
MEASURED_PARAMETER: composite z-score

>>> df
                                   compound                   target_system  reported_measurement
0  CC(=O)OC[C@H]1O[C@H](CC=NOC(C)CN2CCCCc3nc(C)c(C)cc32)C=C[C@@H]1OC(C)=O (some centres undefined)  Fibrinogen (Alexa647-labelled)                 0.495
1  C#CCCCON=C1C[C@@H](O)[C@@H](O)[C@@H]2[C@@H]3C(=O)N(C[C@@H]4CCCO4)C(=O)[C@@H]3CC[C@H]12  Fibrinogen (Alexa647-labelled)                 0.509
2  CCOC(=O)[C@H](Cc1ccccc1)NC(=O)CCC1CC(OC(=O)NCc2cccc3ccccc23)CC2(CCCC(COC(=O)NCC3CCCCC3)O2)O1 (some centres undefined)  Fibrinogen (Alexa647-labelled)                 0.923
3  O=C1[C@H]2[C@H]3[C@H](O)[C@H](O)CC(=NOC[C@@H](O)COCc4ccco4)[C@@H]3CC[C@H]2C(=O)N1C1CCCCC1  Fibrinogen (Alexa647-labelled)                -0.811

###

assay: small-molecule microarray binders of probe aEGFR, primary screen, biochemical, biotinylated probe, 635/667 nm fluorescence (AID 1097); conditions: higher = more signal;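 further: probe is a biotinylated anti-EGFR antibody binding compounds printed on slides; score combines fluorescence near 667 nm and signal to noise of each spot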
MEASURED_PARAMETER: composite z-score

>>> df
                                   compound  reported_measurement
0  CO[C@@H]1COC(=O)[C@@H]2CCCN2C(=O)[C@@H](C)COC(=O)CCC[C@H]1C                 0.158
1  CCN1C(=O)[C@H]2[C@H]3[C@H](O)[C@H](O)CC(=NO[C@@H]4O[C@H](CO)[C@@H](O)[C@H](O)[C@H]4O)[C@H]3CC[C@H]2C1=O                -0.128
2  O=C1[C@H]2[C@H]3[C@H](O)[C@H](O)CC(=NOCc4ccccc4)[C@H]3CC[C@H]2C(=O)N1C1CCCCC1               -0.0691
3  COC(=O)[C@H](C)NC(=O)CCC1CC(OC(=O)NCc2cccc3ccccc23)CC2(CCCC(COC(=O)NCc3ccccc3)O2)O1 (some centres not stated)                  0.12
4  CC(C)(C)N1C(=O)[C@H]2[C@H]3[C@H](O)[C@H](O)CC(=NNC(=O)OCc4ccccc4)[C@@H]3CC[C@H]2C1=O                 0.172
5  CCOC(=O)[C@H](CC(C)C)NC(=O)CCC1CC(OC(=O)NCCc2ccc(F)cc2)CC2(CCCC(COC(=O)NCc3cccc4ccccc34)O2)O1 (some centres not stated)               -0.0995
6       CON(C)C(=O)c1nnc2c(n1)[nH]c1ccccc12                -0.121

The reported numbers originate from PubChem BioAssay.
